Please respond with reported growth for every item in the list.
- System: SNB-19 CNS
- ASSAY PROCEDURE: NCI-60 one-dose screen, 48 h (100 = growth as untreated, 0 = no growth, -100 = all killed)
- CONDITION DESCRIPTION: 10 µM unless noted
About 83,000 compounds went through this panel and 20% of them were active in at least one assay; those are over-represented in the sample as a whole.
Give bare numbers, in %.

Observe how each entry below is paired with its result.
- O=C(c1ccc(O)cc1)[C@@H]1CN[C@@]2(C(=O)Nc3ccccc32)[C@H]1c1ccc(F)cc1: 92.8
- NC(N)=Nc1ccc(Oc2cccc(NC(N)=Nc3ccc(Br)cc3)c2)cn1: 18.8
- O=C(c1ccc(O)c(C(=O)N2Cc3ccc(OCCC[P+](c4ccccc4)(c4ccccc4)c4ccccc4)cc3C2)c1)N1Cc2cccc(F)c2C1: 38.1

For each listed entry, give its growth.
1. Cn1ccnc1C(=O)/C=C/c1ccc(CNC(=O)c2ccc(Cl)cc2)cc1
2. COc1ccc2c(c1)c(CC(=O)[Se]CCC#N)c(C)n2C(=O)c1ccc(Cl)cc1
3. CNC(=O)c1cc(-n2ccc3cc(NC(=O)Nc4ccc(N5CCOCC5)c(C(F)(F)F)c4)ccc32)ccn1
4. Nc1ncc(-c2ccc3ncnc(N4CCc5cc(F)c(F)cc54)c3c2)cn1
5. C[C@@H](Nc1ncnc2ccc(-c3cnc(Cl)c(NS(C)(=O)=O)c3)cc12)c1ccccc1
6. CCOC(=O)c1c(Nc2ccccc2)nn2c(-c3ccc(OC)cc3)ccnc12
7. O=C1C(c2ccccc2)=C(N2CCc3ccccc32)OC1(Cl)Cl

11.1
-45.2
74.2
43.1
64
109
84.9

###

- System: ACHN renal
- ASSAY PROCEDURE: NCI-60 one-dose screen, 48 h (100 = growth as untreated, 0 = no growth, -100 = all killed)
- CONDITION DESCRIPTION: 10 µM unless noted
Compounds without any hit were thinned out: in the full panel of roughly 83,000, 20% have a hit.
QUANTITY MEASURED: growth (%)
One number for each entry, in %.

Worked cases, growth given:
* CCCCCc1ccc(S(=O)(=O)Nc2cc(-c3csc(NC(=O)CN4CCN(C)CC4)n3)ccc2N2CCN(C)CC2)cc1 | 0.622
* Cc1ccc(CSc2nc(-c3ccc(Cl)cc3)c(C#N)c(N3CCNCC3)n2)cc1 | 82.3
* CCN(CC)c1ccc2c(c1)Oc1nc(N)c(C#N)c(N)c1C2Sc1ccc(F)cc1 (stereo not drawn) | -91
* C=CCN(C)S(=O)(=O)/N=C1\NC(=O)NC1=C(Cl)Cl | -96.7
* N#Cc1ccccc1Cn1c2nc(=N)c3ccccc3c-2nc2ccccc21 | 56.4

Give one value of growth per listed compound.
1. O=C(CSc1nnc(-c2ccc(Cl)cc2)n1-c1ccccc1)Nc1ccc(Br)cc1
2. N#Cc1c(NC(=O)c2cccc(C(F)(F)F)c2F)sc2c1CCC(=O)C2
3. Oc1cccc2ccc(-c3nnc(SCc4ccc(O)c5ncccc45)o3)nc12
4. C=C(C=O)[C@@H]1CC[C@]2(C)[C@H](C(=O)C=C3[C@H]4C[C@](C)(C(=O)OC)CC[C@]4(C)CC[C@]32C)[C@@]1(C)CCC#N
5. C=CCn1c(-c2nc3ccc(C(=C(C#N)C#N)c4ccccc4)cc3[nH]2)cc2cc(Br)ccc21

1. -81.9
2. -95.5
3. 7.94
4. -12.5
5. 55.6

Hi! Can you tell me growth for each of these compounds?
1. c1cn2c(ccc3nc(-c4cn[nH]c4)c4c(c32)CCCC4)n1
2. COc1ccc2c(c1)c(CC(=O)[Se]CCC#N)c(C)n2C(=O)c1ccc(Cl)cc1
3. COc1cccc(/C=C(/C)c2ccc3cccc(OC)c3[o+]2)c1O
4. Fc1ccc(-c2cc3nc(C(Cl)Cl)nc(-c4ccc(F)cc4)n3n2)cc1
5. CCn1c(SCC(=O)Nc2cccc(C(=O)/C=C/c3ccccc3Cl)c2)nc2ccccc2c1=O
6. C/C(=N\O)[C@H]1C[C@]23CC[C@]4(C)[C@H](CC[C@@H]5[C@@]6(C)CC/C(=N/O)C(C)(C)[C@@H]6CC[C@]54C)[C@H]2[C@H](C)C1(C)OC3
7. CCNC(=O)N1CCc2cc(OC)c(OCCc3ccc(OC)c(N)c3)cc2C1c1ccc(C)cc1C (stereo not drawn)

1. 26.4
2. 5.57
3. 95.4
4. -41.1
5. 97
6. 104
7. 27.6

Fill in growth for each of the 5 compounds listed.
1. NC(N)=Nc1ccc(Oc2cccc(Nc3ccc(Cl)c(C(F)(F)F)c3)c2)cc1
2. O=C(O)c1ccc(-n2cc(CNc3cccc(Cl)c3)c(-c3ccc(F)cc3)n2)cc1
3. O=[N+]([O-])c1cc(/C=N/Nc2nc(N/N=C/c3ccc(Cl)c([N+](=O)[O-])c3)nc(N3CCCCC3)n2)ccc1Cl
4. CCOc1ccc(NC2=C(Cl)C(=O)c3nc(C)ccc3C2=O)cc1
5. NS(=O)(=O)c1ccc(Nc2nc(SCc3ccccc3)nc3ccccc23)cc1

1. 74
2. 89.6
3. 35.2
4. -98.4
5. 62

# batch size: 4; output growth per entry
1. CC1=NC2=NN3C(=NN2C(c2ccccc2)=C1)N=NC(c1ccc(Br)cc1)=C3c1ccc(Br)cc1
2. CC(=O)c1ccc(Nc2nc(SCC(C)C)nc(-c3ccc(F)cc3)c2C#N)cc1
3. CNC(=O)c1cc(-c2ccc(NC(=S)Nc3cc(C(F)(F)F)cc(C(F)(F)F)c3)cc2)nc2cccnc12
4. C#CCn1cccc1CNc1ccc(OC)cc1

99.3
104
101
-95
